Answer each item with its documented Dmax.
- target-of-assay: BRAF G466V (Homo sapiens, UniProt P15056, G466V)
- Construct: Horizon Discovery (HCT-116 BRAF−/− cells); host or cells: HCT-116 BRAF−/− cells, clone 8, lentiviral transduction
- Sequence (P15056 whole entry G466V): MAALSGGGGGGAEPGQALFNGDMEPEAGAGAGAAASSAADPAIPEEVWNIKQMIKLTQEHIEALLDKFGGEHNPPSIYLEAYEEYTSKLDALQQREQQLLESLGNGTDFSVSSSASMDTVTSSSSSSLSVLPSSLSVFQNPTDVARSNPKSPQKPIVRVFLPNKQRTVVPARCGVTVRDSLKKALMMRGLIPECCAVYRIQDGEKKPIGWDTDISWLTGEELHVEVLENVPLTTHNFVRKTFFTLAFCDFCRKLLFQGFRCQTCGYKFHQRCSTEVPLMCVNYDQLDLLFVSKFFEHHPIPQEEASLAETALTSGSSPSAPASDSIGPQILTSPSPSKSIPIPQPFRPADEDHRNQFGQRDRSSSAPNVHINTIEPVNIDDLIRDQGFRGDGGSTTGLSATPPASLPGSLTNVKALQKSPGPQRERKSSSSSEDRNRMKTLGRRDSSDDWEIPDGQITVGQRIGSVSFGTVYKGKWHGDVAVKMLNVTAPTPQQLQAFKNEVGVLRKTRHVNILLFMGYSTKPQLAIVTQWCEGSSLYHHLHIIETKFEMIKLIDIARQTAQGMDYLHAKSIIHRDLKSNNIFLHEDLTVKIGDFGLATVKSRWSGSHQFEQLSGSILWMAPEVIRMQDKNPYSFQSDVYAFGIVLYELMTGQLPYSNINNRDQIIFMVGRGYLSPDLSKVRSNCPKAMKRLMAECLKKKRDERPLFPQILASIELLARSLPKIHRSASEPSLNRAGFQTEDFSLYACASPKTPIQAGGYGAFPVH
- assay-explanation: BRAF HiBiT degradation assay, C-terminal HiBiT-tagged BRAF G466V overexpressed in HCT-116 BRAF−/− cells (clone 8), Nano-Glo HiBiT Lytic assay
- Type: cell-based
- experimental-parameters: BRAF G466V (Class 3), HCT-116 BRAF−/− cells; observed Dmax relative to DMSO control

Worked set:
molecule: O=C1CC[C@H](c2ccc(N3CCC(CN4CCN(c5ccc(-n6cc(-c7cc(F)cc(NS(=O)(=O)N8CC[C@@H](F)C8)c7F)c(-c7ccncc7)n6)nc5)CC4)CC3)nc2)C(=O)N1
readout-value: > 70%
//
molecule: O=C1CC[C@@H](c2ccc(N3CCC(CN4CCN(c5ccc(-n6cc(-c7cc(Cl)cc(NS(=O)(=O)N8CCCC8)c7F)c(-c7ccncc7)n6)cc5)CC4)CC3)cc2F)C(=O)N1
readout-value: 30 to 70%
//
molecule: C[C@@H]1CN(c2ccc(-n3cc(-c4cc(Cl)cc(NS(=O)(=O)N5CCCC5)c4F)c(-c4ccncc4)n3)nc2)CCN1CC1CCN(c2ccc(C3CCC(=O)NC3=O)cn2)CC1 (mixture of isomers)
readout-value: > 70%

Each molecule below has a reported value. Please supply its Dmax.
1. O=C1CC[C@H](c2ccc(N3CCC(CN4CCN(c5ccc(-n6cc(-c7cc(Cl)cc(NS(=O)(=O)N8CCCC8)c7F)c(-c7ccncc7)n6)cc5)CC4)CC3)cc2)C(=O)N1
2. CCN(C)S(=O)(=O)Nc1cc(Cl)cc(-c2cn(-c3ccc(N4CCN(CC5CCN(c6ccc(N7CCC(=O)NC7=O)cc6)CC5)CC4)cn3)nc2-c2ccncc2)c1F
3. CCCS(=O)(=O)Nc1cccc(-c2nc(C3CCC4(CC3)CCN(CC3CCN(c5ccc6c(c5)CN(C5CCC(=O)NC5=O)C6=O)CC3)CC4)sc2-c2ccnc(N)n2)c1F (racemic)

> 70%
30 to 70%
30 to 70%

###

Answer each item with its documented Dmax.
- target-of-assay: BRAF G466V (Homo sapiens, UniProt P15056, G466V)
- Construct: Horizon Discovery (HCT-116 BRAF−/− cells); host or cells: HCT-116 BRAF−/− cells, clone 8, lentiviral transduction
- assay-explanation: BRAF HiBiT degradation assay, C-terminal HiBiT-tagged BRAF G466V overexpressed in HCT-116 BRAF−/− cells (clone 8), Nano-Glo HiBiT Lytic assay
- Type: cell-based
- experimental-parameters: HCT-116; BRAF G466V; percentage protein degraded at maximal compound effect relative to DMSO

Worked set:
molecule: CCCS(=O)(=O)Nc1cccc(-c2nc(C3CCN(C4CN(C(=O)CC5CCN(c6ccc(C7CCC(=O)NC7=O)cc6)CC5)C4)CC3)sc2-c2ccnc(N)n2)c1F (racemic)
target-of-assay: BRAF G466V (Homo sapiens, UniProt P15056, G466V)
assay-endpoint: Dmax
readout-value: < 30%

molecule: CCCS(=O)(=O)Nc1cccc(-c2nc(C3(C)CCN(C(=O)CN4CCC5(CC4)CN(c4ccc6c(c4)C(=O)N(C4CCC(=O)NC4=O)C6=O)C5)CC3)sc2-c2ccnc(N)n2)c1F (racemic)
target-of-assay: BRAF G466V (Homo sapiens, UniProt P15056, G466V)
assay-endpoint: Dmax
readout-value: 30 to 70%

molecule: CCN(C)S(=O)(=O)Nc1cccc(-c2nc(C)sc2-c2ccnc(Nc3ccc(N4CCN(C(=O)C5CCN(c6ccc(C7CCC(=O)NC7=O)cn6)CC5)CC4)cn3)n2)c1F (racemic)
target-of-assay: BRAF G466V (Homo sapiens, UniProt P15056, G466V)
assay-endpoint: Dmax
readout-value: 30 to 70%

molecule: CCN(C)S(=O)(=O)Nc1cccc(-c2nc(C(C)(C)C)sc2-c2ccnc(Nc3ccc(N4CCN(C(=O)C5CCN(c6ccc(C7CCC(=O)NC7=O)cc6)CC5)CC4)cn3)n2)c1F (racemic)
target-of-assay: BRAF G466V (Homo sapiens, UniProt P15056, G466V)
assay-endpoint: Dmax
readout-value: < 30%

molecule: CCCS(=O)(=O)Nc1cccc(-c2nc(-c3ccc(N4CCN(CC5CCN(c6ccc(C7CCC(=O)NC7=O)cn6)CC5)CC4)cc3)sc2-c2ccnc(N)n2)c1F (racemic)
target-of-assay: BRAF G466V (Homo sapiens, UniProt P15056, G466V)
assay-endpoint: Dmax
readout-value: 30 to 70%

molecule: CCN(C)S(=O)(=O)Nc1cccc(-c2nc(C(C)(C)C)sc2-c2ccnc(Nc3ccc(N4CCN(CC5CCN(c6ccc([C@H]7CCC(=O)NC7=O)cc6)CC5)CC4)cn3)n2)c1F
target-of-assay: BRAF G466V (Homo sapiens, UniProt P15056, G466V)
assay-endpoint: Dmax
readout-value: 30 to 70%

molecule: CCCS(=O)(=O)Nc1cccc(-c2nc(C(C)(C)C)sc2-c2ccnc(Nc3cccc(C4CCN(CC[C@@H]5CCN(c6ccc(C7CCC(=O)NC7=O)cn6)C5)CC4)c3)n2)c1F (mixture of isomers)
target-of-assay: BRAF G466V (Homo sapiens, UniProt P15056, G466V)
assay-endpoint: Dmax
readout-value: < 30%

molecule: CCCS(=O)(=O)Nc1cccc(-c2nc(-c3ccc(C4CCN(C(=O)CC5CCN(c6ccc(C7CCC(=O)NC7=O)cn6)CC5)CC4)cc3)sc2-c2ccnc(N)n2)c1F (racemic)
target-of-assay: BRAF G466V (Homo sapiens, UniProt P15056, G466V)
assay-endpoint: Dmax
readout-value: 30 to 70%

molecule: CCCS(=O)(=O)Nc1cccc(-c2nc(C)sc2-c2ccnc(Nc3ccc(N4CCN(CC5CCN(c6ccc(C7CCC(=O)NC7=O)cn6)CC5)CC4)cn3)n2)c1F (racemic)
target-of-assay: BRAF G466V (Homo sapiens, UniProt P15056, G466V)
assay-endpoint: Dmax
readout-value: 30 to 70%

Pending molecule:
Give Dmax; test system BRAF G466V (Homo sapiens, UniProt P15056, G466V); molecule CCCS(=O)(=O)Nc1cccc(-c2nc(C(C)(C)C)sc2-c2ccnc(Nc3ccc(N4CCN(CC5CCN(c6ccc(C7CCC(=O)NC7=O)cn6)CC5)CC4)c(F)c3)n2)c1F (racemic) > 70%
